# inhibition at 10 µM per entry
test system: CAKI-1; test: NCI-60 one-dose SRB screen (Renal Cancer); format: cell-based; conditions: Homo sapiens, single dose 10 µM, 48 h, read-out: Growth inhibition percent (GI %)
Reply with just the number (in %).

Below, each entry is followed by its recorded inhibition at 10 µM result.
| Compound | System Name | Display Unit | inhibition at 10 µM |
| --- | --- | --- | --- |
| Cc1ccc(-c2nn(-c3ccc(S(N)(=O)=O)cc3)cc2C(=O)OCC(=O)Nc2nnc(S(N)(=O)=O)s2)cc1 [Compound 6b] | CAKI-1 | % | 28 |
| NS(=O)(=O)c1ccc(NC(=O)COC(=O)c2cn(-c3ccc(S(N)(=O)=O)cc3)nc2-c2ccccc2)cc1 [Compound 4a] | CAKI-1 | % | 11.6 |
| CCOC(=O)c1ccc(NC(=O)COC(=O)c2cn(-c3ccc(S(N)(=O)=O)cc3)nc2-c2ccc(C)cc2)cc1 [Compound 5b] | CAKI-1 | % | 70.2 |
| CCOC(=O)c1ccc(NC(=O)COC(=O)c2cn(-c3ccc(S(N)(=O)=O)cc3)nc2-c2ccc(Br)cc2)cc1 [Compound 5d] | CAKI-1 | % | 81.9 |
| CCOC(=O)c1ccc(NC(=O)COC(=O)c2cn(-c3ccc(S(N)(=O)=O)cc3)nc2-c2ccccc2)cc1 [Compound 5a] | CAKI-1 | % | 61.6 |
| NC(=S)NNC(=O)c1cn(-c2ccc(S(N)(=O)=O)cc2)nc1-c1ccc(Br)cc1 [Compound 9d] | CAKI-1 | % | 12.1 |
| NS(=O)(=O)c1ccc(NC(=O)COC(=O)c2cn(-c3ccc(S(N)(=O)=O)cc3)nc2-c2ccc(Br)cc2)cc1 [Compound 4d] | CAKI-1 | % | 63.5 |
| CCOC(=O)c1ccc(NC(=O)COC(=O)c2cn(-c3ccc(S(N)(=O)=O)cc3)nc2-c2ccc(OC)cc2)cc1 [Compound 5c] | CAKI-1 | % | 55.6 |
| CS(=O)(=O)c1ccc(-c2nn(-c3ccc(S(N)(=O)=O)cc3)cc2C(=O)OCC(=O)Nc2ccc(S(N)(=O)=O)cc2)cc1 [Compound 4e] | CAKI-1 | % | 8.93 |
| CS(=O)(=O)c1ccc(-c2nn(-c3ccc(S(N)(=O)=O)cc3)cc2C(=O)NNC(N)=S)cc1 [Compound 9e] | CAKI-1 | % | 9.93 |

API: value(readout=inhibition at 10 µM, system=CAKI-1) for record NS(=O)(=O)c1ccc(-n2cc(C(=O)OCC(=O)Nc3nnc(S(N)(=O)=O)s3)c(-c3ccccc3)n2)cc1 [Compound 6a]
7.52

Follow-up item: Cc1ccc(-c2nn(-c3ccc(S(N)(=O)=O)cc3)cc2-c2nnc(N)s2)cc1 [Compound 10]
12.1

Moving on to the next compound: Cc1ccc(-c2nn(-c3ccc(S(N)(=O)=O)cc3)cc2C(=O)NNC(N)=S)cc1 [Compound 9b]
7.05
